Catalogue of EC50 readings, one per entry.
target: BRD2-BD1 (Homo sapiens (Human), UniProt P25440); assay: competitive TR-FRET assay, BET-BD with acetylated peptide ligand; type: binding; settings: BRD2-BD1; Table 11 additional modifications; read-out: 2.1 EC50
Sequence (P25440 74-180): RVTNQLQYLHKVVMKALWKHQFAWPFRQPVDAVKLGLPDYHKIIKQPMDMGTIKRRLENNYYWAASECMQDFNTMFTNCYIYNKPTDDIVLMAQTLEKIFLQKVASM

| compound | tested.on | sign | EC50, µM |
| --- | --- | --- | --- |
| CC(=O)Nc1cccc(-c2ccc3c(c2)[C@H](Nc2ccc([N+](=O)[O-])cc2)C[C@H](C)N3C(C)=O)c1 [compound 127] | BRD2-BD1 (Homo sapiens (Human), UniProt P25440) | = | 2.3 |
| CC(=O)Nc1cccc(-c2ccc3c(c2)[C@H](NC(=O)c2ccccc2)C[C@H](C)N3C(C)=O)c1 [compound 62] | BRD2-BD1 (Homo sapiens (Human), UniProt P25440) | = | 77 |
| CC(=O)N1c2ccc(-c3cccc(CCO)c3)cc2[C@H](NC(=O)OC(C)C)C[C@@H]1C [compound 89] | BRD2-BD1 (Homo sapiens (Human), UniProt P25440) | = | 1.6 |
| COc1cc(F)ccc1N[C@@H]1C[C@H](C)N(C(C)=O)c2ccc(-c3cccc(CNCC(F)(F)F)c3)cc21 [compound 169] | BRD2-BD1 (Homo sapiens (Human), UniProt P25440) | > | 30 |
| CC(=O)N1c2ccc(-c3cccc(NCCC(C)C)c3)cc2[C@H](NC(=O)OC(C)C)C[C@@H]1C [compound 100] | BRD2-BD1 (Homo sapiens (Human), UniProt P25440) | = | 3.8 |
| CC(=O)Nc1cccc(-c2ccc3c(c2)[C@H](Nc2cccc4ncccc24)C[C@H](C)N3C(C)=O)c1 [compound 31] | BRD2-BD1 (Homo sapiens (Human), UniProt P25440) | = | 0.88 |
| CC(=O)N1c2ccc(-c3coc4ccccc34)cc2[C@H](NC(=O)OC(C)C)C[C@@H]1C [compound 90] | BRD2-BD1 (Homo sapiens (Human), UniProt P25440) | = | 11 |
